Assay read-out IC50 on Prostaglandin G/H synthase 1 (Ovis aries); records merged from the literature.
Sequence (P05979 whole entry): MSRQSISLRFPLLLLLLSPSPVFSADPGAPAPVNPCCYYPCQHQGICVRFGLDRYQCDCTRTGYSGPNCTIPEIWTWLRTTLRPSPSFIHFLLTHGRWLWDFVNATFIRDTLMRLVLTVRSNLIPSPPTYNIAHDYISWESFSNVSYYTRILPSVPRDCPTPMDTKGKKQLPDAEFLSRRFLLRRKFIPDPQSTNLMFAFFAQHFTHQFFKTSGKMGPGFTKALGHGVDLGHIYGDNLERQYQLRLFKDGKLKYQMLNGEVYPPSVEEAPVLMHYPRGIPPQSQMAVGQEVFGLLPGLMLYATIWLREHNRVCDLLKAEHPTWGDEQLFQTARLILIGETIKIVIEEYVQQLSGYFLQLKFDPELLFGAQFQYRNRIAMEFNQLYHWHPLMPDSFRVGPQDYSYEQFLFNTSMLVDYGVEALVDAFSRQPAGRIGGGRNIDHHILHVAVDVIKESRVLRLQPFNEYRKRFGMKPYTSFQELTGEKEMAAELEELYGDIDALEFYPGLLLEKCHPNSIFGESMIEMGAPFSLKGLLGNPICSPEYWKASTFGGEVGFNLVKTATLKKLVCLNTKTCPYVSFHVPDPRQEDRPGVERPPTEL
Property: IC50 (µM)

a. COc1ccc(-c2nn(-c3ccccc3)cc2/C=N\NC2=NC(=O)CS2)cc1
b. Cc1ccc(S(=O)(=O)n2cc(C(=O)C(=O)NCC(=O)N[C@@H](Cc3c[nH]c4ccccc34)C(=O)O)c3ccccc32)cc1
c. Cc1nc2c(c(C)c1O)COC(=O)N2
d. COc1ccc2cc([C@H](C)C(=O)n3c4ccccc4c(=O)c4ccccc43)ccc2c1
Can you order these entries from above by IC50? Start with the largest number and work down. Put the labels in the requested order and write them down.
c, a, b, d
(c: 198 µM, a: 71.3 µM, b: 43.5 µM, d: 18 µM)

a. COc1ccc(-c2nc(SC)nnc2-c2ccc(S(C)(=O)=O)cc2)cc1
b. CC(Oc1cc(=O)oc2ccccc12)C(=O)Nc1ccc(C(F)(F)F)cc1C#N (racemic)
c. CC(=O)N1N=C(c2cc3ccccc3oc2=O)CC1c1ccc([N+](=O)[O-])cc1 (stereo unspecified)
Please order the records by their reported IC50, lowest number first. Put the labels in the requested order and write them down.
b, c, a
(b: 9.6 µM, c: 16.2 µM, a: 50.1 µM)
